System: HepG2
Test: Cytotoxicity against human HepG2 cells after 72 hrs by MTT assay
Type: functional, cell-based
Conditions: HepG2, 72 h
measured_quantity: IC50 (µM)
Express your answer in µM, writing the number without its unit.

Recorded IC50 of `C/C1=C\[C@@H](O)C/C(C)=C/CC(=O)/C(C)=C/[C@@H]2[C@H](CC1)C2(C)C` , please. 61
